system: AT1R (Homo sapiens, UniProt P30556)
Sequence (P30556 whole entry): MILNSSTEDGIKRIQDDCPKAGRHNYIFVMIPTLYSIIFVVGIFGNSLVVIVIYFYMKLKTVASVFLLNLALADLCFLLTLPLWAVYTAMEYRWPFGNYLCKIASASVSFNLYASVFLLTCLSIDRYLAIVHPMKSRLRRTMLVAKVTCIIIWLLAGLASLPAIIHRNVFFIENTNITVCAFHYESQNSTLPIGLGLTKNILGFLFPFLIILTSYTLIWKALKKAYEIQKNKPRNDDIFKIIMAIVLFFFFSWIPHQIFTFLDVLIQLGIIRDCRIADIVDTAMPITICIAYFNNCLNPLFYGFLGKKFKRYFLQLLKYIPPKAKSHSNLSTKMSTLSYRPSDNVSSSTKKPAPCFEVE
experiment-notes: Gαq activation BRET (GABY sensor) in HEK293 cells expressing AT1R
Type: cell-based
Design: expressed in transfected cells; host or cells: HEK293 cells, transient PEI transfection
test-settings: HEK293 cells transiently expressing human AT1R; Gαq-RlucII/Gβ1/Gγ1-GFP10 (GABY) BRET sensor; BRET read 10 min after ligand; mean ± SEM of at least three to five independent experiments
pEC50: −log10 of the molar value. Peptide text beside a SMILES is read from it.
measurement-type: pEC50

CC[C@H](C)[C@H](NC(=O)[C@H](Cc1ccc(O)cc1)NC(=O)[C@@H](NC(=O)[C@H](CCCNC(=N)N)NC(=O)[C@@H](N)CC(=O)O)C(C)C)C(=O)N[C@@H](Cc1c[nH]cn1)C(=O)N1CCC[C@H]1C(=O)N[C@@H](CCC(=O)O)C(=O)O [compound 6] (H-DRVYIHPE-OH; N-terminus assumed)    < 5.00
CC[C@H](C)[C@H](NC(=O)[C@H](Cc1ccc(O)cc1)NC(=O)[C@@H](NC(=O)[C@H](CCCNC(=N)N)NC(=O)[C@@H](N)CC(=O)O)C(C)C)C(=O)N[C@@H](Cc1c[nH]cn1)C(=O)N1CCC[C@H]1C(=O)N[C@@H](Cc1ccc(OCc2ccccc2)cc1)C(=O)O    < 5.00

In: For the compound shown here, CC[C@H](C)[C@H](NC(=O)[C@H](Cc1ccc(O)cc1)NC(=O)[C@@H](NC(=O)[C@H](CCCNC(=N)N)NC(=O)[C@@H](N)CC(=O)O)C(C)C)C(=O)N[C@@H](Cc1c[nH]cn1)C(=O)N1CCC[C@H]1C(=O)N[C@@H](COCc1ccccc1)C(=O)O , give the reported pEC50.
Out: < 5.00

----------
system: AT1R (Homo sapiens, UniProt P30556)
experiment-notes: Gαq activation BRET (GABY sensor) in HEK293 cells expressing AT1R
Type: cell-based
Parameters: expressed in transfected cells; host or cells: HEK293 cells, transient PEI transfection
test-settings: HEK293/AT1R, GABY BRET sensor; response of the ligand at 10 μM, normalised to AngII
Peptide text beside a SMILES is read from it.
measurement-type: Emax Gαq (% AngII)

Solved cases below.
CC[C@H](C)[C@H](NC(=O)[C@H](Cc1ccc(O)cc1)NC(=O)[C@@H](NC(=O)[C@H](CCCNC(=N)N)NC(=O)[C@@H](N)CC(=O)O)C(C)C)C(=O)N[C@@H](Cc1c[nH]cn1)C(=O)N1CCC[C@H]1C(=O)N[C@@H](Cc1ccc(OCc2ccccc2)cc1)C(=O)O [compound 12]    11
CC[C@H](C)[C@H](NC(=O)[C@H](Cc1ccc(O)cc1)NC(=O)[C@@H](NC(=O)[C@H](CCCNC(=N)N)NC(=O)[C@@H](N)CC(=O)O)C(C)C)C(=O)N[C@@H](Cc1c[nH]cn1)C(=O)N1CCC[C@H]1C(=O)N[C@@H](Cc1ccccn1)C(=O)O [compound 19]    48
CC[C@H](C)[C@H](NC(=O)[C@H](Cc1ccc(O)cc1)NC(=O)[C@@H](NC(=O)[C@H](CCCNC(=N)N)NC(=O)[C@@H](N)CC(=O)O)C(C)C)C(=O)N[C@@H](Cc1c[nH]cn1)C(=O)N1CCC[C@H]1C(=O)N[C@@H](Cc1ccc(O)cc1)C(=O)O [24c] (H-DRVYIHPY-OH)    89
CC[C@H](C)[C@H](NC(=O)[C@H](Cc1ccc(O)cc1)NC(=O)[C@@H](NC(=O)[C@H](CCCNC(=N)N)NC(=O)[C@@H](N)CC(=O)O)C(C)C)C(=O)N[C@@H](Cc1c[nH]cn1)C(=O)N1CCC[C@H]1C(=O)N[C@@H](Cc1ccc(OC)cc1)C(=O)O [compound 11]    113
CC[C@H](C)[C@H](NC(=O)[C@H](Cc1ccc(O)cc1)NC(=O)[C@@H](NC(=O)[C@H](CCCNC(=N)N)NC(=O)[C@@H](N)CC(=O)O)C(C)C)C(=O)N[C@@H](Cc1c[nH]cn1)C(=O)N1CCC[C@H]1C(=O)N[C@@H](Cc1c[nH]c2ccccc12)C(=O)O [compound 21] (H-DRVYIHPW-OH; N-terminus assumed)    91

A = CC[C@H](C)[C@H](NC(=O)[C@H](Cc1ccc(O)cc1)NC(=O)[C@@H](NC(=O)[C@H](CCCNC(=N)N)NC(=O)[C@@H](N)CC(=O)O)C(C)C)C(=O)N[C@@H](Cc1c[nH]cn1)C(=O)N1CCC[C@H]1C(=O)N[C@@H](Cc1cccc2ccccc12)C(=O)O [compound 8]
B = CC[C@H](C)[C@H](NC(=O)[C@H](Cc1ccc(O)cc1)NC(=O)[C@@H](NC(=O)[C@H](CCCNC(=N)N)NC(=O)[C@@H](N)CC(=O)O)C(C)C)C(=O)N[C@@H](Cc1c[nH]cn1)C(=O)N1CCC[C@H]1C(=O)N[C@@H](Cc1cccnc1)C(=O)O [compound 18]
C = CC[C@H](C)[C@H](NC(=O)[C@H](Cc1ccc(O)cc1)NC(=O)[C@@H](NC(=O)[C@H](CCCNC(=N)N)NC(=O)[C@@H](N)CC(=O)O)C(C)C)C(=O)N[C@@H](Cc1c[nH]cn1)C(=O)N1CCC[C@H]1C(=O)N[C@H](C(=O)O)C(c1ccccc1)c1ccccc1 [compound 15]
D = CC[C@H](C)[C@H](NC(=O)[C@H](Cc1ccc(O)cc1)NC(=O)[C@@H](NC(=O)[C@H](CCCNC(=N)N)NC(=O)[C@@H](N)CC(=O)O)C(C)C)C(=O)N[C@@H](Cc1c[nH]cn1)C(=O)N1CCC[C@H]1C(=O)N[C@H](C(=O)O)C(C)(C)C [compound 3]
In: I would appreciate it if you could sort these 4 compounds by Emax Gαq (% AngII), starting from the smallest number. Your task in answering is to list the labels in the requested order.
Out: D, B, A, C
(D: 19 % AngII, B: 31 % AngII, A: 61 % AngII, C: 99 % AngII)

I = CC[C@H](C)[C@H](NC(=O)[C@H](Cc1ccc(O)cc1)NC(=O)[C@@H](NC(=O)[C@H](CCCNC(=N)N)NC(=O)[C@@H](N)CC(=O)O)C(C)C)C(=O)N[C@@H](Cc1c[nH]cn1)C(=O)N1CCC[C@H]1C(=O)N[C@@H](CC1CCCCC1)C(=O)O [compound 4]
II = CC[C@H](C)[C@H](NC(=O)[C@H](Cc1ccc(O)cc1)NC(=O)[C@@H](NC(=O)[C@H](CCCNC(=N)N)NC(=O)[C@@H](N)CC(=O)O)C(C)C)C(=O)N[C@@H](Cc1c[nH]cn1)C(=O)N1CCC[C@H]1C(=O)N[C@@H](COCc1ccccc1)C(=O)O [compound 16]
In: Compare the recorded Emax Gαq (% AngII) of I and II ; state which is larger. Record your answer as the label of the chosen record.
Out: I
(I: 52 % AngII, II: 26 % AngII)
